Where these numbers come from: the nanobody polyreactivity screen of Harvey et al. (2022)

Assay: yeast display, Sf9 membrane polyspecificity reagent, FACS + sequencing; frameworks hold sequencing errors
MEASURE NAME: polyreactivity (PSR sort gate)

# count of solved cases: 5
{"SEQUENCE STRING": "QVQLVESGGGLVQAGGSLRLSCAASGSTFVSYVMGWYRQAHGKERELVATSSGRAGRTYYADSVKGRFTISRDNAKNTVSLQMNSLKPEDTAVYYCNAGQWRYPGLYYYWGQATQVTVSS", "polyreactivity (PSR sort gate)": "high polyreactivity"}
{"SEQUENCE STRING": "QVQLQESGGGLVQAGGSLRLSCAASGSISRYYDMGWYRQAPGKELEFVAGISGGAITYYADSVKGRFTISRDNAKNTVYLQMNSLKPEDTAVYYCAADTGVYQYHSYWGQGTQVTVSS", "polyreactivity (PSR sort gate)": "low polyreactivity"}
{"SEQUENCE STRING": "QVQLVESGGGLVQAGGSLRLSCAASGRIFDVYAMGWYRQAPGKERELVATISSSGGATYYADSVKGRFTISRDNAKNTVYLQMNSLKPEDTAVYYCATTYRPTFRRHYNYWGQGTQVTVSS", "polyreactivity (PSR sort gate)": "low polyreactivity"}
{"SEQUENCE STRING": "QVQLVESGGGLVQAGGSLRLSCAASGRTFYTNVMGWYRQAPGKERELVAAITTSSSRTYYADSVKGRFTISRDNAKNTVYLQMNSLKPEDTAVYYCAARIHGSWSFDYWGQGTQVTVSS", "polyreactivity (PSR sort gate)": "low polyreactivity"}
{"SEQUENCE STRING": "QVQLVESGGGLLQAGGSLRLSCAASGIIFGRYTMGWYRKAPGKETELVAAITSSGITYYADSVKGRFTISRDNAKNTVYLQMNSLKPEDTAVYYCYADYSIPGYYWPYDYWGQGTQVTVSS", "polyreactivity (PSR sort gate)": "low polyreactivity"}

Qu. Request the reported polyreactivity (PSR sort gate) associated with QVQLVESGGGLVQAGGSLRLSCAASGFTFIKNAMGWYRPAPGKERELVAAINSGGRTYYADSVKGRFTISRDNAKNTVYFQMNSLIPEDTAVYYCAARYTRDYYWGQGTQVTVSS
Ans. high polyreactivity

Qu. Request: QVQLVESGGGLVQAGGILRLSCAASGRTLYHYVMGWYRQAPGKERELVAAISSGGSTYYADSVKGRFTISRDNAKNTVYLQMNSLKPEDTEVYYCAAGRRGDWGQGTQVTVSS
Ans. high polyreactivity

Qu. Request: QVQLVESGGGLVQAGGSLRLSCAASGRNFLPNAMGWSRPAPGKERELVAAITSGGGSTYYADSVKGRFTISRDKAKNTVYLQMNSLKPEDTAVYYCAKQPYRGKYYYWGQGTQVTVSS
Ans. high polyreactivity

Qu. Request: QVQLVESGGGLVQAGGSLRLSCAASGITFSYNAMGWYRPAPGKERELVAAIRVGDGSTYYADSVKGRFTISRDNAKNTVYLQMNSLNPEDTAVYYCNARYLRLRYPYTDEYNYWGQGTQVTVSS
Ans. low polyreactivity

Qu. Request: QVQLVESGGGLVHAGGSLRLSCAASGSTLGYNVMGWYRQAPGKERELVAAISGDGSTNYADSVKGRFTISRDNAKNTVYLQMNSLKREDTEVYYCNAPFWGYRTSFSYPVVQRFDYWGQGTHVTVSS
Ans. low polyreactivity

Qu. Request: QVQLVESGGGLVQAGGSLRLSCAASGRTFYIYAMGWYRQAPGKLRQLVAVIRGSGGSTYYADSVKGRFTISRDNAKYTVYLQMNSQKPEDTAVYYCAARRYQYVWSLYNYWGQGTQVTVSS
Ans. high polyreactivity
